# subjectOfTest: Pan-species-specific antigen Plasmodium Lactate DeHydrogenase (Pan-PLDH) protein
# assaySummary: indirect ELISA, recombinant MA protein coated 1 ug/ml, antibody 1.6 ng/ml
Each record is given YES if its reported OD value at 450 nm (refer to 630 nm) is strictly below 0.3 OD. Records at or above 0.3 OD are given NO.

Mutation 1 (antibody, mouse IgG2b, kappa, V domains shown) VH: QVQLQQPGAELVRPGASVKLSCKASGSSFTNYWMNWVKQRPGQGLEWIGMIHPSESETRINQKFKDKATLTVDKSSSTAYMQLSSLTAEDSAVYYCAKSGDFYTSYFDYWGQGTTLTVSS VL: DIQLTQSPASLSASVGETVTITCRGSGNLHNYLAWYQQKQGKSPQLLVYNARTIADGVPSRFSGSGSGTQYSLKINSLQPEDFGSYYCQSFWSTYTFGGGTKLEIKR :: NO

Prompt line: Is it true that OD value at 450 nm (refer to 630 nm) reported for Mutation 3 (antibody, mouse IgG2b, kappa, V domains shown) VH: QVQLQQPGAELVRPGASVKLSCKASGSSFTNYWMNWVKQRPGQGLEWIGMINPSESETRINQKFKDKATLTVDKSSSTAYMQLSSLTAEDSAVYYCAKSGDFYTSYFDYWGQGTTLTVSS VL: DIQLTQSPASLSASVGETVTITCRGSGNLHNYIAWYQQKQGKSPQLLVYNARTIADGVPSRFSGSGSGTQYSLKINSLQPEDFGSYYCQSFWSTYTFGGGTKLEIKR is less than 0.3 OD?
Response line: YES

Prompt line: Is it true that OD value at 450 nm (refer to 630 nm) reported for anti-Pan-PLDH 9G7 monoclonal antibody (antibody, mouse IgG2b, kappa, V domains shown) VH: QVQLQQPGAELVRPGASVKLSCKASGSSFTNYFMNWVKQRPGQGLEWIGMINPSESETRINQKFKDKATLTVDKSSSTAYMQLSSLTAEDSAVYYCAKSGDFYTSYWDYWGQGTTLTVSS VL: DIQLTQSPASLSASVGETVTITCRGSGNLHNYIAWYQQKQGKSPQLLVYNARTIADGVPSRFSGSGSGTQYSLKINSLQPEDFGSYYCQSFWSSYTFGGGTKLEIKR is less than 0.3 OD?
Response line: YES

Prompt line: Is it true that OD value at 450 nm (refer to 630 nm) reported for Mutation 4 (antibody, mouse IgG2b, kappa, V domains shown) VH: QVQLQQPGAELVRPGASVKLSCKASGSSFTNYFMNWVKQRPGQGLEWIGMIHPSESETRINQKFKDKATLTVDKSSSTAYMQLSSLTAEDSAVYYCAKSGDFYTSYWDYWGQGTTLTVSS VL: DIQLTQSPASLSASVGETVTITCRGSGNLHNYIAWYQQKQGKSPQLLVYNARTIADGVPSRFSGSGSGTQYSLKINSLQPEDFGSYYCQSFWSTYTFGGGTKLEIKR is less than 0.3 OD?
Response line: YES
